target or test system: T1, human high-affinity IL-2 receptor complex, IL-2 CD25/CD122/CD132 (α/β/γ), on cells (human, UniProt P01589 22-272; P14784 27-551; P31785 23-369)
T1 sequence (looked up) 1: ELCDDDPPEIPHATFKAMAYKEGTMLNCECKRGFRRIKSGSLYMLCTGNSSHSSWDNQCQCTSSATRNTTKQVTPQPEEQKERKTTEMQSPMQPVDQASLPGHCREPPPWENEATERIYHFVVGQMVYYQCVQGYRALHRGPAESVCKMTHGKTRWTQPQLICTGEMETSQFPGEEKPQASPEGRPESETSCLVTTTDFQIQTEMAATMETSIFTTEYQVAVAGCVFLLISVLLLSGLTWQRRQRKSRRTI
T1 sequence (looked up) 2: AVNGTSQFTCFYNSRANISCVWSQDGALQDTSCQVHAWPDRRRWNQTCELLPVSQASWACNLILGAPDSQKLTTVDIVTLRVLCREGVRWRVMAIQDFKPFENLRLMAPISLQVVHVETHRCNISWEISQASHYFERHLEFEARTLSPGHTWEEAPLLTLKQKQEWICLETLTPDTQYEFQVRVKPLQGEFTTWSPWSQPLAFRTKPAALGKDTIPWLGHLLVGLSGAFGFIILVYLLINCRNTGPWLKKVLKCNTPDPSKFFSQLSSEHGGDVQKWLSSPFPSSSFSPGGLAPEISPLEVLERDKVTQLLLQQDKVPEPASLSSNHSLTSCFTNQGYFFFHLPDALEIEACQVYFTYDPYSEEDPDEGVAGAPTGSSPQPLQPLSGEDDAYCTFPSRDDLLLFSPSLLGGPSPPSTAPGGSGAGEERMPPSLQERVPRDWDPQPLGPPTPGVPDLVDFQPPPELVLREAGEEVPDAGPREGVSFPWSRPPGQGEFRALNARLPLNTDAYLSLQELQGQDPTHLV
T1 sequence (looked up) 3: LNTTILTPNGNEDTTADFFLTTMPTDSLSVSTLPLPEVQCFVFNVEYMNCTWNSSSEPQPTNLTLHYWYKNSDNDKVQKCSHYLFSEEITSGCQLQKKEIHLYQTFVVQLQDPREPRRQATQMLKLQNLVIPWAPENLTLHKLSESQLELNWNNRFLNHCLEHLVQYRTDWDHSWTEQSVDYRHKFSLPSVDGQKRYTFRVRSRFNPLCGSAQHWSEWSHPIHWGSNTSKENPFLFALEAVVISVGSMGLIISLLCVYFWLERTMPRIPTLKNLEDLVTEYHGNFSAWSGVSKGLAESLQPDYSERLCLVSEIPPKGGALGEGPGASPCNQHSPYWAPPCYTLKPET
protocol notes: cell-based or functional assay
reported property: EC50, pSTAT5 induction in iTreg cells (ELISA) (nM)
Please respond with the number in nM and leave the unit unwritten.

* Fc-IL2-R38N:L40T-K43N:Y45T (Fc fusion) GGGGSGGGGSAPTSSSTKKTQLQLEHLLLDLQMILNGINNYKNPKLTNMTTFNFTMPKKATELKHLQCLEEELKPLEEVLNLAQSKNFHLRPRDLISNINVIVLELKGSETTFMCEYADETATIVEFLNRWITFCQSIISTLT | 14.1
* Fc-IL2v (Fc fusion) GGGGSGGGGSAPASSSTKKTQLQLEHLLLDLQMILNGINNYKNPKLTRMLTAKFAMPKKATELKHLQCLEEELKPLEEVLNGAQSKNFHLRPRDLISNINVIVLELKGSETTFMCEYADETATIVEFLNRWITFAQSIISTLT | 0.31
* Fc-IL2-K43N:Y45T-E62N:K64T (Fc fusion) GGGGSGGGGSAPTSSSTKKTQLQLEHLLLDLQMILNGINNYKNPKLTRMLTFNFTMPKKATELKHLQCLEENLTPLEEVLNLAQSKNFHLRPRDLISNINVIVLELKGSETTFMCEYADETATIVEFLNRWITFCQSIISTLT | 3.07

// EC50, pSTAT5 induction in iTreg cells (ELISA) value for Fc-IL2-K43N:Y45T-L72N:Q74T (Fc fusion) GGGGSGGGGSAPTSSSTKKTQLQLEHLLLDLQMILNGINNYKNPKLTRMLTFNFTMPKKATELKHLQCLEEELKPLEEVLNNATSKNFHLRPRDLISNINVIVLELKGSETTFMCEYADETATIVEFLNRWITFCQSIISTLT : 4.49

All values here come from patent US20220033784A1.
